Biological target: T1, S100A4 (UniProt P26447 1-101)
T1 construct: S100A4; the NMR analysis speaks of residues 1-101; The His-tag is named only for the SPR experiment (two His-tags in the dimer); also called WT S100A4; u-S100A4; source: expressed and purified as described previously (Badyal et al., 2011)
Experiment: kinetic scheme (estimates or values required for thermodynamic balance); apo S100A4 dimer (no Ca2+ bound); values in blue in the scheme, not experimental measurements
Details: both partners purified
Experimental readout: pKd
pKd field: float, defined as -log10 of concentration (mol/L).

# get_value(readout='pKd', item= QRELEDATETADAMNREVSSLKNKLRRGDLPFVVPRRMA (nonmuscle myosin IIA heavy chain (NM-MHC IIA), residues Q1897-A1935; also called u-M39; WT M39; source: synthetic peptide; bought: GL Biochem Ltd (Shanghai, China), purity >95% by HPLC) [M39 peptide of nonmuscle myosin IIA heavy chain (residues Q1897-A1935)] ) 2.00
